biological target: NK1 receptor (Homo sapiens); assay: Impedance-based morphology assay (xCELLigence) in U-251 MG cells; format: cell-based; design: host or cells: U-251 MG cells; conditions: SP after 30 min pre-incubation with 0.7 nM antagonist; read-out: EC50 morphology SP
Sequence (P25103 whole entry): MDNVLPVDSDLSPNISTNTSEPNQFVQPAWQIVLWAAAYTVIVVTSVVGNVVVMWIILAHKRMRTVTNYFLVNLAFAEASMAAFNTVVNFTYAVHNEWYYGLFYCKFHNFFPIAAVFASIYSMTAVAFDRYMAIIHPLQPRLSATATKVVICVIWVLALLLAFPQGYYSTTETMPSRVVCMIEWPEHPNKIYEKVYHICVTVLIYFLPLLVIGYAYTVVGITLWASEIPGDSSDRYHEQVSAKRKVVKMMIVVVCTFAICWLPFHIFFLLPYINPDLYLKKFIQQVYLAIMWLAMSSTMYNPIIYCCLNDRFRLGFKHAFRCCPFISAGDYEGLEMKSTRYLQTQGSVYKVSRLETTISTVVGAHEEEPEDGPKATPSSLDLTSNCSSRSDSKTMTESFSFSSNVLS
measure_name: pEC50
Entry type: numeric. Quantity: pEC50, the -log10 of concentration in molar units.

Entry under review: C[C@@H](O[C@H]1OCCN(Cc2n[nH]c(=O)[nH]2)[C@H]1c1ccccc1)c1cc(C(F)(F)F)cc(C(F)(F)F)c1 [DFA, desfluoro aprepitant] . Reported pEC50?
8.52

---

biological target: human neurokinin 1 receptor (Homo sapiens, UniProt P25103); test: Real-time cAMP accumulation assay (GloSensor) in CHOhNK1 cells; assay type: cell-based; conditions: read-out: EC50 cAMP NKA; NKA after 30 min pre-incubation with 0.07 nM antagonist
measure_name: EC50 (nM)
Express your answer in nM, writing the number without its unit.

State its EC50 on human neurokinin 1 receptor (Homo sapiens, UniProt P25103): C[C@@H](O[C@H]1OCCN(Cc2n[nH]c(=O)[nH]2)[C@H]1c1ccccc1)c1cc(C(F)(F)F)cc(C(F)(F)F)c1 [DFA, desfluoro aprepitant]
399
